Origin of the recorded values: the supplement of paper PMC9112550

system: Escherichia coli TOP10; test: shrunken log2 fold change of peptide-encoding DNA abundance (4.5 h post-induction vs induction); higher = less antimicrobial activity (less host growth inhibition); conditions: time post-induction: 4.5 h; library: site-saturation at positions 5, 18, 19, 20
measured_attribute: shrunken log2 fold change
Give a plain numeric answer without units written out.

INSERT INTO assay_data (sequence_string, measured_attribute, reported_result) VALUES
  ('RRIRRRPPRLPRPRPRPRWNPRP', 'shrunken log2 fold change', 0.326),
  ('RRIRSRPPRLPRPRPRPMWMPRP', 'shrunken log2 fold change', -0.344),
  ('RRIRDRPPRLPRPRPRPEQSPRP', 'shrunken log2 fold change', 0.964),
  ('RRIRDRPPRLPRPRPRPWFHPRP', 'shrunken log2 fold change', -0.00884);

Proceeding to the next sequence to report its shrunken log2 fold change.
Prompt: Fill blank: measured shrunken log2 fold change of the sequence "RRIRPRPPRLPRPRPRPGQHPRP" is ____.
Response: 0.0653

###

tested on: Escherichia coli TOP10; experiment: shrunken log2 fold change of peptide-encoding DNA abundance (4.5 h post-induction vs induction); higher = less antimicrobial activity (less host growth inhibition); conditions: time post-induction: 4.5 h; library: site-saturation at positions 5, 18, 19, 20;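 also: peptides expressed intracellularly from a pBAD plasmid library in pooled LB shake-flask culture, induced with 0.3% L-arabinose, DNA abundance read by NGS, three biological replicates, DESeq2 with apeglm shrinkage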
shrunken log2 fold change below -0.01 gives label 0; shrunken log2 fold change at or above it gives label 1.

The following sequences have reported results that may help.
INSERT INTO measurements (sequence_string, classification) VALUES
  ('RRIRQRPPRLPRPRPRPFYRPRP', 'label 0'),
  ('RRIRARPPRLPRPRPRPNISPRP', 'label 1'),
  ('RRIRWRPPRLPRPRPRPVQLPRP', 'label 1'),
  ('RRIRWRPPRLPRPRPRPYSPPRP', 'label 0'),
  ('RRIRIRPPRLPRPRPRPEHYPRP', 'label 0');

Prompt: Could you tell me if the measured shrunken log2 fold change of "RRIRERPPRLPRPRPRPYQKPRP" reaches -0.01 or more?
Response: label 0

Prompt: Identify whether the reported shrunken log2 fold change of the following sequence is -0.01 or greater: "RRIRRRPPRLPRPRPRPVYSPRP"
Response: label 0

Prompt: Decide: shrunken log2 fold change of "RRIRERPPRLPRPRPRPQPAPRP" >= -0.01?
Response: label 1

Prompt: Exam item: decide whether the reported shrunken log2 fold change for "RRIRYRPPRLPRPRPRPHRIPRP" is at least -0.01.
Response: label 0

Prompt: Check if shrunken log2 fold change >= -0.01 (inclusive). Item: "RRIRSRPPRLPRPRPRPQIGPRP"
Response: label 0

Prompt: Reported shrunken log2 fold change at or above -0.01? "RRIRQRPPRLPRPRPRPMFWPRP"
Response: label 1

Prompt: Check the entry "RRIRWRPPRLPRPRPRPYTHPRP" : does shrunken log2 fold change equal or exceed -0.01?
Response: label 0

Prompt: Decide: is the reported value of shrunken log2 fold change for "RRIRPRPPRLPRPRPRPALCPRP" equal to or greater than -0.01?
Response: label 1

Prompt: Please indicate if the recorded shrunken log2 fold change for "RRIRLRPPRLPRPRPRPEIYPRP" meets or exceeds -0.01.
Response: label 0

Prompt: Assess whether reported shrunken log2 fold change for "RRIRERPPRLPRPRPRPRIKPRP" sits at -0.01 or higher.
Response: label 0
